# PROCEDURE SUMMARY: Inhibition of AmpC beta lactamase by spectrophotometry
pKi: −log10 of the molar value.
METRIC: pKi

molecular_string=O=C(O)c1ccc(C(=O)Nc2cccc(S(=O)(=O)Nc3cc(B(O)O)ccc3C(=O)O)c2)cc1 value=7.00
molecular_string=Cc1noc(C)c1S(=O)(=O)Nc1cc(B(O)O)ccc1C(=O)O value=6.46
molecular_string=O=C(O)c1ccc(C(=O)Nc2ccc(S(=O)(=O)Nc3cccc(B(O)O)c3)cc2)cc1 value=6.35
molecular_string=O=C(O)c1ccc(B(O)O)cc1NS(=O)(=O)c1cccc(S(=O)(=O)Nc2cc(B(O)O)ccc2C(=O)O)c1 value=7.64
molecular_string=Nc1cc(B(O)O)ccc1C(=O)O value=5.74
molecular_string=O=S(=O)(Nc1cccc(B(O)O)c1)c1cccc(S(=O)(=O)Nc2cccc(B(O)O)c2)c1 value=7.22

* * *

# PROCEDURE SUMMARY: Lipophilicity, log D of the compound
# Assay type: physicochemical
# RUN CONDITIONS: octanol/water
METRIC: logD

molecular_string=O=C(O)c1ccc(B(O)O)cc1NS(=O)(=O)c1cc(S(=O)(=O)c2ccccc2)cs1 metric=logD value=0.026
